subject_of_test: GORASP1, Q9BQQ3
Sequence (Q9BQQ3 1-208): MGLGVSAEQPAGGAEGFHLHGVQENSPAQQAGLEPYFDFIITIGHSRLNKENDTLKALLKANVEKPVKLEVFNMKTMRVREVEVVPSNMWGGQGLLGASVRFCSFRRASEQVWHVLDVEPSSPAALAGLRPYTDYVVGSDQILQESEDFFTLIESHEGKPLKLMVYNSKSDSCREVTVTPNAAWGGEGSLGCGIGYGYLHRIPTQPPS
assay_notes: holdup assay
Set-up: key: below the threshold = too weak to quantify, mostly under pKd 3.1 to 4
condition_label: plain residues with an end cap or a label only (N-terminal biotin on a linker: ado-ado)
measurement_label: pKd

Below, each entry is followed by its recorded pKd result.
TGLWKHETTV [ADGRA3, Q8IWK6] : below the threshold
PYSESDDDWC [CACNA1A, O00555] : below the threshold
LESTTVGTSV [KARS1, Q15046] : below the threshold
VKRNSKETVV [MARCHF3, Q86UD3] : 4.09
NISYRRESAI [KCNJ4, P48050] : below the threshold

Now examine the next entry.
**Query** Query: pKd; subject: NVYGIESVKI [GRIA2, P42262]
**Result** 3.58
